# Test system: control sera (pooled serum of ten healthy LUMC hospital workers; commercial negative donor pooled serum from the Dutch bloodbank)
# Format: binding, human
# Parameters: unit not given here
value.type: Binding of Control Serum Blood-Bank to Looped peptides of the protein M of SARS-CoV Urbani

* LAWIMLLQFAYSNRN | 0.6
* CDIKDLPKEITVATS | 0.6
* KLGASQRVGTDSGFA | 0.8
* FLYIIKLVFLWLLWP | 0.8
* MAGHPLGRCDIKDLP | 0.5
* RCDIKDLPKEITVAT | 0.6
* LLWPVTLACFVLAAV | 0.6
* ELVIGAVIIRGHLRM | 0.7
* QLLEQWNLVIGFLFL | 0.5
* LLNVPLRGTIVTRPL | 0.9
* VIGFLFLAWIMLLQF | 0.7
* VASFRLFARTRSMWS | 0.8
* YYKLGASQRVGTDSG | 0.7
* NRFLYIIKLVFLWLL | 0.7
* KEITVATSRTLSYYK | 0.7
* VTGGIAIAMACIVGL | 0.7
* LVIGFLFLAWIMLLQ | 0.6

---

# System: antibodies in sera from SARS patients (sera 1a, 1b, 2, 6, 37, 62, London, SARS-yellow, SARS-green)
# Format: binding, human
Criterion: Binding of serum 6 to looped/cyclic peptides of protein X2 of SARS-CoV Urbani meeting or surpassing 0.4. Met: criterion met. Not met: criterion not met.

• VYHITVSQIQLSLLK = criterion met
• THITMTTVYHITVSQ = criterion not met
• MMSRRRLLACLCKHK = criterion not met
• VLKMLHSSSLTSLLK = criterion not met
• HKKVSTNLCTHSFRK = criterion met
• VTAFQHQNSKKTTKL = criterion not met
• CKHKKVSTNLCTHSF = criterion not met
• SLTSLLKTHRMCKYT = criterion not met
• TLVLKMLHSSSLTSL = criterion met

---

# Test system: antibodies in sera from SARS patients (sera 1a, 1b, 2, 6, 37, 62, London, SARS-yellow, SARS-green)
# Type: binding, human
This listing pairs sequences with measured Binding of serum 62 to looped/cyclic peptides of protein X4 of SARS-CoV Urbani.
value.type: Binding of serum 62 to looped/cyclic peptides of protein X4 of SARS-CoV Urbani

- THFAFACADGTRHTY: 0.6
- AALVFLILCFTIKRK: 0.7
- QLRARSVSPKLFIRQ: 0.6
- CADGTRHTYQLRARS: 0.6
- PKLFIRQEEVQQELY: 0.6
- YSPLFLIVAALVFLI: 0.6
- FALTCTSTHFAFACA: 0.7
- IVFTSCELYHYQECV: 0.8
- NKFALTCTSTHFAFA: 0.9

---

# Test system: antibodies in sera from SARS patients (sera 1a, 1b, 2, 6, 37, 62, London, SARS-yellow, SARS-green)
# Format: binding, human
A collection of sequences and their measured Binding of serum London to looped/cyclic peptides of protein X2 of SARS-CoV Urbani
value.type: Binding of serum London to looped/cyclic peptides of protein X2 of SARS-CoV Urbani

* TTVYHITVSQIQLSL | 0.2
* QIQLSLLKVTAFQHQ | 0.7
* ELLIQQWIQFMMSRR | 0.2
* SLHKLLQTLVLKMLH | 0.3
* HKKVSTNLCTHSFRK | 0.3
* SRRRLLACLCKHKKV | 0.1
* MTTVYHITVSQIQLS | 0.2
* MLHSSSLTSLLKTHR | 0.2
* MSLYMAISPKFTTSL | 0.4
* LHSSSLTSLLKTHRM | 0.2
* LLIQQWIQFMMSRRR | 0.2
* IQQWIQFMMSRRRLL | 0.2
